Tested on: SK-MEL-5 melanoma
Test: NCI-60 one-dose screen, 48 h (100 = growth as untreated, 0 = no growth, -100 = all killed)
Details: 10 µM
Compounds without any hit were thinned out: in the full panel of roughly 83,000, 20% have a hit.
Hi there, I'd appreciate the recorded growth for every entry that follows.
Write the value in % as a bare number.

Query: State, in one line, measured growth of `COc1ccccc1/C=N\N/C(N)=N\N=C\c1ccccc1OC`
Response: -30

Query: State, in one line, measured growth of `O=C(CSc1nccc(Nc2cccc3ccccc23)n1)c1ccc(Cl)cc1`
Response: 98.3

Query: State, in one line, measured growth of NC1=NC(c2ccc(Cl)cc2)C2=C(N1)/C(=C/c1ccc(Cl)cc1)CCC2 (stereo unspecified)
Response: 87.5

Query: State, in one line, measured growth of `CC(C)(C)OC(=O)N1CCc2c(sc3ncnc(N/N=C/c4cccc(Br)c4)c23)C1`
Response: 44.1

Query: State, in one line, measured growth of `C[C@H]1[C@H](OC(=O)CCC(=O)O)O[C@@H]2O[C@]3(C)CC[C@H]4[C@H](C)CC[C@@H]1[C@@]24OO3`
Response: 28

Query: State, in one line, measured growth of `O=C1/C=C/[C@@H](O)[C@@H]2C[C@@H](O)C[C@H]2/C=C/CCC[C@H](C(F)(F)F)O1`
Response: -98.3

Query: State, in one line, measured growth of CCCCN1C(=O)CC(SC2CC(=O)N(CCCC)C2=O)C1=O (stereo unspecified)
Response: 104

Query: State, in one line, measured growth of `N#Cc1cnn(C(=O)c2nn(-c3ccc(Cl)cc3)cc2O)c1N`
Response: 14.8

Query: State, in one line, measured growth of `O=[N+]([O-])c1cccc(/C=N/NC(=S)NC23CC4CC(CC(C4)C2)C3)c1`
Response: 85.7

Query: State, in one line, measured growth of `CNC(=O)c1c(I)c(NC(C)=O)c(I)c(C(=O)O)c1I`
Response: 108

Query: State, in one line, measured growth of `COc1cc2c3c(n([C@@H]4CCOC4)c(=O)c2cc1OC)-c1cc2c(cc1C3=O)OCO2`
Response: 14.2

Query: State, in one line, measured growth of C/C=C/C1=CN2C(=O)c3cc(OC4OC(C)C(NC)C(C)(O)C4O)c(C)c(O)c3N=C[C@@H]2C1 (stereo partly specified)
Response: -62.2

Query: State, in one line, measured growth of `COc1ccc(N(C)c2ncnc3occ(C)c23)cc1`
Response: -44.5

Query: State, in one line, measured growth of `COc1ccc(-c2onc(N)c2-c2cc(OC)c3c(c2)OCO3)cc1`
Response: 1.27

Query: State, in one line, measured growth of `COc1ccc(C2=Cn3c(CCC(=O)c4nc5ccccc5[nH]4)nnc3SC2)cc1`
Response: 87.7

Query: State, in one line, measured growth of `O=[N+]([O-])c1ccc2ncccc2c1Cl`
Response: 89.3

Query: State, in one line, measured growth of `c1ccc(CSc2ncccc2-c2nnc(SCCN3CCOCC3)o2)cc1`
Response: 102

Query: State, in one line, measured growth of `NS(=O)(=O)c1ccc(N2N=C(c3ccccc3)CCC2=O)cc1`
Response: 105

Query: State, in one line, measured growth of `COc1cc2cc(Oc3ccc(NC(=O)c4cc(C(F)(F)F)cc(C(F)(F)F)c4)cc3)c(C)nc2cc1OC`
Response: 16.6

Query: State, in one line, measured growth of NC1=NC(c2ccccc2)C2=C(N1)/C(=C/c1ccccc1)CCC2 (stereo unspecified)
Response: 98.9

Query: State, in one line, measured growth of `CCOC(=O)c1cc(C(=O)c2ccc(OC)c(OC)c2)n2ccncc12`
Response: 89.4

Query: State, in one line, measured growth of `CN(C)CCN(Cc1ccccc1)c1ccc2ccccc2n1`
Response: 91.7

Query: State, in one line, measured growth of O=C(CCC(C(=O)c1ccccc1)c1ccccc1)c1ccccc1 (stereo unspecified)
Response: 82.5

Query: State, in one line, measured growth of COc1nc2c(c(=O)n1C)CN(c1ccccc1)C(=O)C(C)N2 (stereo unspecified)
Response: 104

Query: State, in one line, measured growth of `O=C(Nc1ccc2c(O)cc(S(=O)(=O)O)cc2c1)c1ccc([N+](=O)[O-])cc1`
Response: 94.8

Query: State, in one line, measured growth of `CC(=O)Nc1ccc2c(c1)C(=O)c1cccc(C(=O)O)c1-2`
Response: 95.5

Query: State, in one line, measured growth of CC(=O)OC1C=CC(OC(C)=O)O1 (stereo unspecified)
Response: 104

Query: State, in one line, measured growth of COc1ccc2c(c1)OC(N)=C(C#N)C2c1cc(OC)c(OC)c(OC)c1 (stereo unspecified)
Response: -46.2

Query: State, in one line, measured growth of OCC1OC(n2ccc3c(NO)ncnc32)C(O)C1O (stereo unspecified)
Response: -90.8

Query: State, in one line, measured growth of `COc1cc2c(cc1NC(=O)C(Cl)Cl)-c1ccc(NC(=O)C(Cl)Cl)cc1C2`
Response: 22.5

Query: State, in one line, measured growth of `O=C(Nc1ccc(F)cc1)c1cc2ccccc2cc1O`
Response: 65.7

Query: State, in one line, measured growth of `CC(C)N(CCOc1cccc(-c2nc3sccn3c2-c2ccnc(S(C)(=O)=O)n2)c1)C(C)C`
Response: 3.97

Query: State, in one line, measured growth of `Fc1ccc2[nH]cc(-c3nc(-c4ccsc4)cs3)c2c1`
Response: 89.2

Query: State, in one line, measured growth of CC(=O)OC1CC2C(C)(C)CCC[C@]2(C)C2=C1C(O)=C(C(C)C)C(=O)C2=O (stereo partly specified)
Response: -99.7

Query: State, in one line, measured growth of `CN(C)c1ccc(/C=N/NC(=O)c2ccccc2Nc2cccc(C(F)(F)F)c2)cc1`
Response: 81.8

Query: State, in one line, measured growth of C[C@]12CCC3c4ccc(O)cc4C[C@@H](CCCCCCCCCS(=O)CCCC(F)(F)C(F)(F)F)C3C1CC[C@@H]2O (stereo partly specified)
Response: 76

Query: State, in one line, measured growth of `CCCCCCCCCCCCCCCCCC[n+]1ccc2c(C)c3c(c(C)c2c1)c1cc(O)ccc1n3CC`
Response: -94.2

Query: State, in one line, measured growth of `CCCc1nc(C(C)(C)O)c(C(=O)O)n1Cc1ccc(-c2ccccc2-c2nn[nH]n2)cc1`
Response: 110

Query: State, in one line, measured growth of `Cc1cc(Cl)ccc1Nc1nc(C(F)(F)F)ccc1C(=O)N/N=C/c1cccc(O)c1`
Response: -52.1

Query: State, in one line, measured growth of `Clc1ccc(C2=NN=C3C(Cc4ccccc4)=Nc4ccccc4N3C2)cc1`
Response: 80.3

Query: State, in one line, measured growth of `COc1cc(-c2ccc(N=Nc3ccc4c(S(=O)(=O)O)ccc(N)c4c3O)c(OC)c2)ccc1N=Nc1ccc2c(S(=O)(=O)O)ccc(N)c2c1O`
Response: 105
